Data origin, for the record: BigSolDB 2.1

Conditions: in n-propanol, 323.15 K
PROPERTY: solubility (mole fraction)
Quick one: just the number, no unit, thanks!

Suppose we examine the compound `OC(Cn1cncn1)(Cn1cncn1)c1ccc(F)cc1F` ; what solubility (mole fraction) value has been reported?
0.0278

###

Details: in chloroform, 323.15 K
PROPERTY: solubility (mole fraction)
Quick one: just the number, no unit, thanks!

Suppose we examine the compound `OC(Cn1cncn1)(Cn1cncn1)c1ccc(F)cc1F` ; what solubility (mole fraction) value has been reported?
0.0181

###

Settings: in methanol, 303.15 K
PROPERTY: solubility (mole fraction)
Quick one: just the number, no unit, thanks!

Suppose we examine the molecule `OC(Cn1cncn1)(Cn1cncn1)c1ccc(F)cc1F` ; what solubility (mole fraction) value has been reported?
0.0193

###

Conditions: in 1,4-dioxane, 313.15 K
PROPERTY: solubility (mole fraction)
Quick one: just the number, no unit, thanks!

Suppose we examine the compound `OC(Cn1cncn1)(Cn1cncn1)c1ccc(F)cc1F` ; what solubility (mole fraction) value has been reported?
0.0219

###

Details: in n-butanol, 313.15 K
PROPERTY: solubility (mole fraction)

Suppose we examine the compound `OC(Cn1cncn1)(Cn1cncn1)c1ccc(F)cc1F` ; what solubility (mole fraction) value has been reported?
0.0102

###

Settings: in 1,4-dioxane, 318.15 K
PROPERTY: solubility (mole fraction)

Suppose we examine the compound `OC(Cn1cncn1)(Cn1cncn1)c1ccc(F)cc1F` ; what solubility (mole fraction) value has been reported?
0.0257

###

Conditions: in n-butanol, 323.15 K
PROPERTY: solubility (mole fraction)
Quick one: just the number, no unit, thanks!

Suppose we examine the molecule `OC(Cn1cncn1)(Cn1cncn1)c1ccc(F)cc1F` ; what solubility (mole fraction) value has been reported?
0.016

###

Details: in methanol, 298.15 K
PROPERTY: solubility (mole fraction)
Quick one: just the number, no unit, thanks!

Suppose we examine the compound `OC(Cn1cncn1)(Cn1cncn1)c1ccc(F)cc1F` ; what solubility (mole fraction) value has been reported?
0.0141

###

Details: in methanol, 323.15 K
PROPERTY: solubility (mole fraction)
Quick one: just the number, no unit, thanks!

Suppose we examine the molecule `OC(Cn1cncn1)(Cn1cncn1)c1ccc(F)cc1F` ; what solubility (mole fraction) value has been reported?
0.088

###

Settings: in THF, 323.15 K
PROPERTY: solubility (mole fraction)
Quick one: just the number, no unit, thanks!

Suppose we examine the compound `OC(Cn1cncn1)(Cn1cncn1)c1ccc(F)cc1F` ; what solubility (mole fraction) value has been reported?
0.0331

###

Settings: in n-propanol, 298.15 K
PROPERTY: solubility (mole fraction)
Quick one: just the number, no unit, thanks!

Suppose we examine the compound `OC(Cn1cncn1)(Cn1cncn1)c1ccc(F)cc1F` ; what solubility (mole fraction) value has been reported?
0.0115

###

Details: in n-butanol, 318.15 K
PROPERTY: solubility (mole fraction)

Suppose we examine the compound `OC(Cn1cncn1)(Cn1cncn1)c1ccc(F)cc1F` ; what solubility (mole fraction) value has been reported?
0.0132

###

Settings: in chloroform, 313.15 K
PROPERTY: solubility (mole fraction)
Quick one: just the number, no unit, thanks!

Suppose we examine the molecule `OC(Cn1cncn1)(Cn1cncn1)c1ccc(F)cc1F` ; what solubility (mole fraction) value has been reported?
0.0148

###

Details: in ethanol, 318.15 K
PROPERTY: solubility (mole fraction)
Quick one: just the number, no unit, thanks!

Suppose we examine the compound `OC(Cn1cncn1)(Cn1cncn1)c1ccc(F)cc1F` ; what solubility (mole fraction) value has been reported?
0.0284
